Just for reference, patent US12714684B2 is where these values come from.

test method notes: Thermodynamic solubility study in water with 1% LSS
Format: physicochemical
condition description: water with 1% sodium lauryl sulfate (LSS), aqueous with cosolvent or surfactant or cyclodextrin, thermodynamic from solid; high concentration sample, 37.5° C., water with 1% LSS, 30 min
observation type: solubility at 30 min (µg/mL)

[[record]]
sample_smiles = "COc1cc(/C=C/C(=O)CC(=O)/C=C/c2ccc(O)c(OC)c2)ccc1O"
units_label = "µg/mL"
observed_result = 110

